B1: CPEB3 Ribozyme (parent)
chain: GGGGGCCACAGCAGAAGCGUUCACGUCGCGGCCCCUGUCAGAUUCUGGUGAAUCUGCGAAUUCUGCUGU

- Variants of: B1
- experimental protocol: self-cleavage, relative activity (ratio to wild type); higher = more cleavage; co-transcriptional
Answer false if self-cleavage is under 0.5, and true if it is 0.5 or more.

variant code	qualitative label
G11C U62G	false
G2C C57A	false
G3U C39U	false
C12G U44G	true
G4U C29A	false
U36G G37C	false
C6U A16U	true
C12A U44G	true
G1C G14U	false
C12U G17C	false
C18A U36A	false
G14A G56C	false
C6A U44A	false
G31C U64A	false
A15G U67G	true
G31U A40G	false
C22G U55G	false
G41U C45G	false
G3A G4A	false
G5C C27U	false
G65U C66U	true
G19A U62G	false
U49G U67A	true
A13U G68C	true
G3C C24G	false
G37U U46A	false
G3U G4C	false
G37A G50U	false
A8G C66G	false
C22A U67A	false
C6G G17A	false
G68A U69G	true
G31C G56U	false
G30C U62A	false
G48A G65C	true
C7G G68U	true
C18G U36C	false
G11C U38G	false
C24A C34G	false
U21A G41A	true
G30A U38C	true
U21C G25C	false
U21G G68A	true
U55G U67A	true
U20C C66A	false
G19U U44G	false
A42U G65U	false
G47C A52U	true
A42C U49A	true
G31C U61C	false
C54A U69A	true
A16G C57G	false
G5A U53G	false
G2A A8U	false
G31C G50C	false
A16G C45G	true
A8C C45U	true
G4U G68U	true
G2A A23G	false
C12G U46A	true
C12A G30U	false
G25A A59C	false
G17U G25C	false
A8G G14U	false
A13C U64G	true
G4A C45A	true
C34G U64A	false
U43C U64G	true
G19A C33A	false
U38C U49G	true
C22G A60C	false
C39A G48A	true
G37A A60G	false
G19A C34A	false
C24U C35U	true
G25A U62C	false
G37C U61C	false
G11A U55G	false
U55C U61A	true
C18A C39U	false
A23C G56A	true
G19C U49C	false
U38C C45A	true
C18U U62A	false
G17U U26G	false
U43C U46A	true
C32A U36C	true
C18U C22U	false
G25C U43C	false
C6U A8U	true
